Molecular target: zebrafish MR (zfMR) (Danio rerio, UniProt A6YIH7)
Sequence (A6YIH7 entry or part of it): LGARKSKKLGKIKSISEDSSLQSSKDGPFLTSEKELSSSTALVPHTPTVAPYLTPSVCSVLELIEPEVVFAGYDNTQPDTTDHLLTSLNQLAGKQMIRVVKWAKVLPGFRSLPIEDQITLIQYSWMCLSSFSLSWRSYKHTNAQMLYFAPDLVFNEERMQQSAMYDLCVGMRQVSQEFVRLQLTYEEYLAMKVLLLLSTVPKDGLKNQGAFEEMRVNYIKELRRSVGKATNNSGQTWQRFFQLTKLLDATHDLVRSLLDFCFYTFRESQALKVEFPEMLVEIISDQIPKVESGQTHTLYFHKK
Assay: UG5LN-GAL4-zfMR luciferase reporter cell assay (agonism and antagonism tests)
Format: cell-based
Conditions: antagonism test, in presence of aldosterone 0.5 10^−9 M; UG5LN-GAL4-zfMR cells; read-out: IC50
observable: pIC50
Answers are plain numbers, as −log10 of the molar value.

Please give pIC50, item by item, for the list that follows.
1. CC(=O)[C@H]1CC[C@H]2[C@@H]3CC=C4C[C@@H](O)CC[C@]4(C)[C@H]3CC[C@]12C
2. CC#C[C@]1(O)CC[C@H]2[C@@H]3CCC4=CC(=O)CCC4=C3[C@@H](c3ccc(N(C)C)cc3)C[C@@]21C
3. CCC(=O)[C@@]1(C)CC[C@H]2[C@@H]3CCC4=CC(=O)CCC4=C3CC[C@@]21C

6.78
5.98
6.54
